Values compiled from PubChem BioAssay (NCI).

System: SK-MEL-28 melanoma
EXPERIMENT_SUMMARY: NCI tumour cell line growth inhibition, 48 h

STRUCTURE | GI50
Cc1[nH]nc(C(F)(F)F)c1Cc1sc2c(c1C(=O)N1C[C@](C)(O)CO1)c(=O)n(C)c(=O)n2C(C)C | > 100 µM
CC(C)[C@@H](C(=O)O[C@@H]1/C=C/C(=O)O[C@@H](C)CCC/C=C/[C@@H]2C[C@H](O)C[C@H]21)N(C)C | 6.03 µM
COC(=O)[C@]1(C)CCC[C@@]2(C)C3=C(CC[C@H]12)C[C@@H](CC(OC(C)=O)OC(C)=O)[C@@H](C)C3 | 11.5 µM
CCOC(=O)C1=C(Nc2ccc(OC)cc2)C(N)=NC1=N | 6.89 µM
Nc1ccc(C#Cc2ccccc2C#CCCCCO)cc1 | 9.31 µM
Cc1nnc(N/N=C/c2ccc([N+](=O)[O-])o2)[nH]c1=O | 0.815 µM
O=C(Nc1ccc(Cl)c(Cl)c1)c1ccc(NC2=C(Cl)C(=O)N(Cc3ccccc3)C2=O)cc1 | 21.2 µM
